Target: T1, SinR (Bacillus subtilis 168 (sequence …, UniProt P06533 1-111))
T1 sequence: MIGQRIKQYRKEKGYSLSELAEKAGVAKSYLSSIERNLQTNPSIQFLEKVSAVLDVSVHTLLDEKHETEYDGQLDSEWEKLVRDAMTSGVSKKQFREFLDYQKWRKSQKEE
Assay: ITC; binding site 2 of two-sites model; N2 = 0.143 +/- 0.0123; ITC: buffer C (20 mM HEPES/NaOH, 500 mM NaCl; pH not stated for buffer C, 8.0 for buffers A/B), 25 °C; 30 µM SinR in cell, 150 µM IR-DNA titrated in
Settings: protein: recombinant; tags: C-terminal His6; chain copies: 4; blunt
pKd: −log10 of the molar value.

- binder: "IR-DNA (SinR operator inverted repeat) (dsDNA) DNA 1: TTTGTTCTCTAAAGAGAACTTA DNA 2: TAAGTTCTCTTTAGAGAACAAA"
  pKd: "~8.22"

// provenance: paper PMC6192195
